TARGET_OR_TEST_SYSTEM: JAK3 (Homo sapiens)
Sequence (P52333 whole entry): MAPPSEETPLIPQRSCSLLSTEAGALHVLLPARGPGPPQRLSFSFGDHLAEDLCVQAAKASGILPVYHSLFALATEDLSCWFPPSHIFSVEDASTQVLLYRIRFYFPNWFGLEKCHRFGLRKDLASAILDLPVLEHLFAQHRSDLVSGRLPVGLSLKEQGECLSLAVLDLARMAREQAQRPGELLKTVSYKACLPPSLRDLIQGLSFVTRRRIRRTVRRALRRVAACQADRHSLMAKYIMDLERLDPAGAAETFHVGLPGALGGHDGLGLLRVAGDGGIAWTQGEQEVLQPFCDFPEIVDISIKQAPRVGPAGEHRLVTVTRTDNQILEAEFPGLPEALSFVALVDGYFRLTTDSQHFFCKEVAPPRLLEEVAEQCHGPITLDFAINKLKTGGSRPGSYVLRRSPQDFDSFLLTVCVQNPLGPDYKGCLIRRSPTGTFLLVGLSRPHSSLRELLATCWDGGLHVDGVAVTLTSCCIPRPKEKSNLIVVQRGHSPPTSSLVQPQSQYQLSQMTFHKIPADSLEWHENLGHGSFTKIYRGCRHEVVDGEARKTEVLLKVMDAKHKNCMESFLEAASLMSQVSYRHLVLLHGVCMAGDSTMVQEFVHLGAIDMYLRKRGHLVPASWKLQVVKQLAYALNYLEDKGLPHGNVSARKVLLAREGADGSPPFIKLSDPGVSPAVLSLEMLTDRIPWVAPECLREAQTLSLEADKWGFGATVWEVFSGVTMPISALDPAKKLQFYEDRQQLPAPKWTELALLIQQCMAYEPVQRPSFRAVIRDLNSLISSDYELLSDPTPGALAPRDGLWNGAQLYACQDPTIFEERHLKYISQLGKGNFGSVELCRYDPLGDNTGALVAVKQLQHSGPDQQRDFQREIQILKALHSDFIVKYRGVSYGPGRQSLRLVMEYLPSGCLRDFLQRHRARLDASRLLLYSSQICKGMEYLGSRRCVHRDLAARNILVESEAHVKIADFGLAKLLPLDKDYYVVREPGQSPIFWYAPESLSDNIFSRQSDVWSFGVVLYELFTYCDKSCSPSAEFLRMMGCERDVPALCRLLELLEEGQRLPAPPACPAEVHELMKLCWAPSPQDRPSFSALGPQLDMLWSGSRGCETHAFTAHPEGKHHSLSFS
ASSAY_NOTES: Inhibition of JAK kinase activity, EZ Reader microfluidic phosphorylation of peptide substrate: JAK3
Assay type: biochemical
CONDITION_LABEL: JAK3 kinase 1 nM; highest final concentration 10 μM, 1:3 serial dilution, 8 points, duplicates
Task for the reader: assign each of the following compounds its reported IC50.

[in] Which IC50 value belongs to Cn1cc(Nc2nccc(-c3ccn(C4(CC#N)CN(S(=O)(=O)CCCF)C4)c3)n2)cn1 ?
[out] 1 to 10 µM

[in] What would you report for CCS(=O)(=O)N1CCC(n2cc(-c3ccnc(Nc4cnn(C)c4)n3)cn2)CC1 ?
[out] ≥ 10 µM

[in] What would you report for Cn1cc(Nc2nccc(-c3cnn(C4CCN(C(=O)CC(F)(F)F)C4)c3)n2)cn1 (stereo not shown) ?
[out] ≥ 10 µM

[in] What would you report for Cn1cc(Nc2nccc(-c3cnn(C4CN(C(=O)C5CC5)C4)c3)n2)cn1 ?
[out] ≥ 10 µM

[in] What would you report for CCCCS(=O)(=O)N1CC(CC#N)(n2cc(-c3ccnc(Nc4cnn(C)c4)n3)cn2)C1 ?
[out] ≥ 10 µM

[in] What would you report for CCCC(=O)N1CC(n2cc(-c3ccnc(Nc4cnn(C)c4)c3)cn2)C1 ?
[out] ≥ 10 µM

[in] What would you report for Cn1cc(Nc2nccc(-c3cnn(C4CCN(C(=O)CC#N)CC4)c3)n2)cn1 ?
[out] ≥ 10 µM

[in] What would you report for CCCC(=O)N1CCC(n2cc(-c3ccnc(Nc4cnn(C)c4)n3)cn2)C1 (stereo not shown) ?
[out] ≥ 10 µM

[in] What would you report for Cn1cc(Nc2nccc(-c3cnn(C4CN(C(=O)CO)C4)c3)n2)cn1 ?
[out] ≥ 10 µM

[in] What would you report for Cn1cc(Nc2cc(-c3cnn(C4CN(C(=O)CC#N)C4)c3)ccn2)cn1 ?
[out] ≥ 10 µM

[in] What would you report for Cn1cc(Nc2nccc(-c3cnn(C4(CC#N)CN(C(=O)C5CC5(F)F)C4)c3)n2)cn1 (stereo not shown) ?
[out] 1 to 10 µM

[in] What would you report for Cn1cc(Nc2nccc(-c3ccn(C4(CC#N)CN(S(=O)(=O)C5CC5)C4)c3)n2)cn1 ?
[out] 1 to 10 µM

[in] What would you report for CCCC(=O)N1CCC(n2cc(-c3ccnc(Nc4cnn(C)c4)n3)cn2)CC1 ?
[out] ≥ 10 µM

[in] What would you report for CCS(=O)(=O)N1CC(CC#N)(n2ccc(-c3ccnc(Nc4cnn(C)c4)n3)c2)C1 ?
[out] 1 to 10 µM

[in] What would you report for Cn1cc(Nc2cc(-c3cnn(C4CN(C(=O)CO)C4)c3)ccn2)cn1 ?
[out] ≥ 10 µM

[in] What would you report for Cn1cc(Nc2nccc(-c3cnn(C4(CC#N)CN(C(=O)C5CC5)C4)c3)n2)cn1 ?
[out] ≥ 10 µM

[in] What would you report for CCCS(=O)(=O)N1CCC(n2cc(-c3ccnc(Nc4cnn(C)c4)n3)cn2)CC1 ?
[out] ≥ 10 µM

[in] What would you report for Cn1cc(Nc2nccc(-c3cnn(C4CCN(C(=O)C5CC5(F)F)CC4)c3)n2)cn1 (stereo not shown) ?
[out] ≥ 10 µM

[in] What would you report for CCCC(=O)N1CC(n2cc(-c3ccnc(Nc4cnn(C)c4)n3)cn2)C1 ?
[out] ≥ 10 µM

###

Task for the reader: assign each of the following molecules its reported IC50.
TARGET_OR_TEST_SYSTEM: Tyk2 (Homo sapiens)
Sequence (P29597 whole entry): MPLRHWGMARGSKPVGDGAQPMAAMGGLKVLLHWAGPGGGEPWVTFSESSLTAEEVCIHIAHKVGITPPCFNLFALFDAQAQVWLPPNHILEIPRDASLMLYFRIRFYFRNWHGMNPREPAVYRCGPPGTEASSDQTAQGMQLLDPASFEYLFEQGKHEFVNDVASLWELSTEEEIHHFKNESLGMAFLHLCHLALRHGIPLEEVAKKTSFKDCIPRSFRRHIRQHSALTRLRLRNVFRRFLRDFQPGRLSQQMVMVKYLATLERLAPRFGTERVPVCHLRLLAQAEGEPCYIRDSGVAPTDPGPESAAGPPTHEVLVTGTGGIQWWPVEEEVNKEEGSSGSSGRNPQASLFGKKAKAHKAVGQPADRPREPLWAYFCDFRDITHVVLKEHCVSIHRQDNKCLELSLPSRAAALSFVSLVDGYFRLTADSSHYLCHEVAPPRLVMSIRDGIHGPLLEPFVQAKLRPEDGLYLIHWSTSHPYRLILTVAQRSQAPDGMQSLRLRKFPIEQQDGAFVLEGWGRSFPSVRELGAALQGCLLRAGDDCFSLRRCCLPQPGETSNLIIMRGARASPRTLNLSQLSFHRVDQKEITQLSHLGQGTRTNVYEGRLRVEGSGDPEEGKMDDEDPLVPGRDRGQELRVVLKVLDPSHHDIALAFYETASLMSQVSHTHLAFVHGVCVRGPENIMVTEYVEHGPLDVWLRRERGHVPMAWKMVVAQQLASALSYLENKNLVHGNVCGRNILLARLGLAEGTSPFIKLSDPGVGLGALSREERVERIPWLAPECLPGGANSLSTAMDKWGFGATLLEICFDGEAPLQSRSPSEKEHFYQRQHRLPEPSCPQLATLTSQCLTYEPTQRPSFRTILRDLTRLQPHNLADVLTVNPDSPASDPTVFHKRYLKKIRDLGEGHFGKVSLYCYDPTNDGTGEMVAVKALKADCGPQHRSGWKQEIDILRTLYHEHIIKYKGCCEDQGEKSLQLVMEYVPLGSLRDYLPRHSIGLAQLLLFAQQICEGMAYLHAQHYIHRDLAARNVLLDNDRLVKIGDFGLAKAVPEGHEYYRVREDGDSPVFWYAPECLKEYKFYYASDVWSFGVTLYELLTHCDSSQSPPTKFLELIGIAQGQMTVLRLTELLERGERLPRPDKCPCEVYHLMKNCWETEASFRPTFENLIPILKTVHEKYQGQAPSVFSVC
ASSAY_NOTES: Inhibition of JAK kinase activity, EZ Reader microfluidic phosphorylation of peptide substrate: Tyk2
Type: biochemical
CONDITION_LABEL: Tyk2 kinase 1 nM; highest final concentration 10 μM, 1:3 serial dilution, 8 points, duplicates

[in] Which IC50 value belongs to CCCS(=O)(=O)N1CC(CC#N)(n2cc(-c3ccnc(Nc4cnn(C)c4)n3)cn2)C1 ?
[out] 0.1 to 1 µM

[in] What would you report for CCCCS(=O)(=O)N1CC(CC#N)(n2cc(-c3ccnc(Nc4cnn(C)c4)n3)cn2)C1 ?
[out] 0.1 to 1 µM

[in] What would you report for Cn1cc(Nc2nccc(-c3ccn(C4(CC#N)CN(C(=O)C5CC5)C4)n3)n2)cn1 ?
[out] 1 to 10 µM

[in] What would you report for Cn1cc(Nc2nccc(-c3ccn(C4(CC#N)CN(S(=O)(=O)C5CC5)C4)n3)n2)cn1 ?
[out] 0.1 to 1 µM

[in] What would you report for Cn1cc(Nc2nccc(-c3cnn(C4(CC#N)CN(C(=O)CC#N)C4)c3)n2)cn1 ?
[out] 0.1 to 1 µM

[in] What would you report for CC(C)S(=O)(=O)N1CC(CC#N)(n2cc(-c3ccnc(Nc4cnn(C)c4)n3)cn2)C1 ?
[out] 0.1 to 1 µM

[in] What would you report for Cn1cc(Nc2nccc(-c3cnn(C4(CC#N)CN(S(=O)(=O)CCC(F)(F)F)C4)c3)n2)cn1 ?
[out] 0.1 to 1 µM

[in] What would you report for Cn1cc(Nc2nccc(-c3cnn(C4CCN(C(=O)CC(F)(F)F)CC4)c3)n2)cn1 ?
[out] ≥ 10 µM

###

TARGET_OR_TEST_SYSTEM: UniProtKB P23458
Sequence (P23458 whole entry): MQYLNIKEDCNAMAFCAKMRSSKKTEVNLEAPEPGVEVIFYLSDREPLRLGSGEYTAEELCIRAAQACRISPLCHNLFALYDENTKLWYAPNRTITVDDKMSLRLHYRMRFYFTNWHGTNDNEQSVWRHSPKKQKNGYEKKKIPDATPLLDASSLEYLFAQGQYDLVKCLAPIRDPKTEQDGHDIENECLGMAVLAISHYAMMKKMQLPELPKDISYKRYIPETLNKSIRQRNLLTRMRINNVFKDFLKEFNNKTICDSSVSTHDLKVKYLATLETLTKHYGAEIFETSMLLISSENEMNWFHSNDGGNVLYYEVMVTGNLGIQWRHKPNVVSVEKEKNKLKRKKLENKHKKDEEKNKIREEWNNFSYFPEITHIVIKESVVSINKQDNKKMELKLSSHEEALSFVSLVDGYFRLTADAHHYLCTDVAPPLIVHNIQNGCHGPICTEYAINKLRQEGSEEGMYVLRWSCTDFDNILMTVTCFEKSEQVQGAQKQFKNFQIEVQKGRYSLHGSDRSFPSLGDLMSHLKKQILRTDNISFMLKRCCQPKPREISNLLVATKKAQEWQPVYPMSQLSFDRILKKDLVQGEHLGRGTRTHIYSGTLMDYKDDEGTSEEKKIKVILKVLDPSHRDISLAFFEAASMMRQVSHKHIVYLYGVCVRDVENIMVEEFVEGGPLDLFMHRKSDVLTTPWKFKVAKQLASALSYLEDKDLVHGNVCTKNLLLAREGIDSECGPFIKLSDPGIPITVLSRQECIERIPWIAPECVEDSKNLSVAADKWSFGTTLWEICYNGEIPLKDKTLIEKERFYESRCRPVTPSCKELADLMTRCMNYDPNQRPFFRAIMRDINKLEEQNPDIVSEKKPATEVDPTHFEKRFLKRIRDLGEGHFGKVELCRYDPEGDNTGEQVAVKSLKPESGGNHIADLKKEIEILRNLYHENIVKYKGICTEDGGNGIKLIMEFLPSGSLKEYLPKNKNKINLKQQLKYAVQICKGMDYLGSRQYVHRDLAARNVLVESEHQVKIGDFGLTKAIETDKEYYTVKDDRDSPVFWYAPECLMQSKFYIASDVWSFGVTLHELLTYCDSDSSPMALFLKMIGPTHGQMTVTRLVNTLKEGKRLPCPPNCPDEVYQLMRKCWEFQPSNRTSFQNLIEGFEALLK
ASSAY_NOTES: Inhibition of JAK kinase activity, EZ Reader microfluidic phosphorylation of peptide substrate: JAK1
Assay type: biochemical
CONDITION_LABEL: JAK1 kinase 20 nM; highest final concentration 10 μM, 1:3 serial dilution, 8 points, duplicates
MEASURED_ENDPOINT: IC50

[in] Which IC50 value belongs to Cn1cc(Nc2nccc(-c3cnn(C4(CC#N)CN(S(=O)(=O)Cc5ccccc5)C4)c3)n2)cn1 [TDM-180795] ?
[out] 1 to 10 µM

[in] What would you report for Cn1cc(Nc2nccc(-c3ccn(C4(CC#N)CN(C(=O)CC(F)(F)F)C4)c3)n2)cn1 [TDM-180778] ?
[out] < 0.1 µM

[in] What would you report for Cn1cc(Nc2nccc(-c3cnn(C4CN(C(=O)C5CC5(F)F)C4)c3)n2)cn1 (stereo not drawn) [TDM-180668] ?
[out] ≥ 10 µM

[in] What would you report for Cn1cc(Nc2nccc(-c3ccn(C4(CC#N)CN(C(=O)C5CC5)C4)n3)n2)cn1 [TDM-180858] ?
[out] 1 to 10 µM

[in] What would you report for Cn1cc(Nc2cc(-c3cnn(C4CN(C(=O)CO)C4)c3)ccn2)cn1 [TDM-180644] ?
[out] ≥ 10 µM

[in] What would you report for Cn1cc(Nc2nccc(-c3cnn(C4CN(C(=O)CC#N)C4)c3)n2)cn1 [TDM-180671] ?
[out] ≥ 10 µM

[in] What would you report for CCCS(=O)(=O)N1CCC(n2cc(-c3ccnc(Nc4cnn(C)c4)n3)cn2)C1 (stereo not drawn) [TDM-180648] ?
[out] 1 to 10 µM

[in] What would you report for Cn1cc(Nc2cc(-c3cnn(C4CN(C(=O)CC#N)C4)c3)ccn2)cn1 [TDM-180641] ?
[out] ≥ 10 µM

[in] What would you report for CCS(=O)(=O)N1CCC(n2cc(-c3ccnc(Nc4cnn(C)c4)n3)cn2)C1 (stereo not drawn) [TDM-180647] ?
[out] ≥ 10 µM

[in] What would you report for Cn1cc(Nc2cc(-c3cnn(C4CN(C(=O)C5CC5(F)F)C4)c3)ccn2)cn1 (stereo not drawn) [TDM-180638] ?
[out] ≥ 10 µM

[in] What would you report for CCS(=O)(=O)N1CC(CC#N)(n2ccc(-c3ccnc(Nc4cnn(C)c4)n3)n2)C1 [TDM-180922] ?
[out] 0.1 to 1 µM

[in] What would you report for Cn1cc(Nc2nccc(-c3cnn(C4CCN(C(=O)C5CC5)C4)c3)n2)cn1 (stereo not drawn) [TDM-180652] ?
[out] ≥ 10 µM

[in] What would you report for CCC(=O)N1CC(n2cc(-c3ccnc(Nc4cnn(C)c4)c3)cn2)C1 [TDM-180639] ?
[out] ≥ 10 µM

[in] What would you report for Cn1cc(Nc2nccc(-c3cnn(C4CN(C(=O)C5CC5)C4)c3)n2)cn1 [TDM-180667] ?
[out] ≥ 10 µM

[in] What would you report for Cn1cc(Nc2nccc(-c3cnn(C4(CC#N)CN(S(=O)(=O)C5CC5)C4)c3)n2)cn1 [TDM-180766] ?
[out] 0.1 to 1 µM

[in] What would you report for Cn1cc(Nc2nccc(-c3cnn(C4(CC#N)CN(C(=O)CO)C4)c3)n2)cn1 [TDM-180810] ?
[out] 1 to 10 µM

[in] What would you report for Cn1cc(Nc2nccc(-c3cnn(C4CCN(C(=O)CC(F)(F)F)C4)c3)n2)cn1 (stereo not drawn) [TDM-180651] ?
[out] ≥ 10 µM

[in] What would you report for COC(=O)CCS(=O)(=O)N1CC(CC#N)(n2cc(-c3ccnc(Nc4cnn(C)c4)n3)cn2)C1 [TDM-180927] ?
[out] 0.1 to 1 µM

[in] What would you report for CCC(=O)N1CCC(n2cc(-c3ccnc(Nc4cnn(C)c4)n3)cn2)CC1 [TDM-180676] ?
[out] ≥ 10 µM

[in] What would you report for Cn1cc(Nc2nccc(-c3ccn(C4(CC#N)CN(C(=O)CO)C4)c3)n2)cn1 [TDM-180786] ?
[out] 1 to 10 µM

[in] What would you report for Cn1cc(Nc2nccc(-c3cnn(C4CCN(C(=O)C5CC5)CC4)c3)n2)cn1 [TDM-180673] ?
[out] ≥ 10 µM

[in] What would you report for Cn1cc(Nc2nccc(-c3ccn(C4(CC#N)CN(C(=O)C5CC5(F)F)C4)c3)n2)cn1 (stereo not drawn) [TDM-180776] ?
[out] < 0.1 µM

[in] What would you report for Cn1cc(Nc2nccc(-c3ccc(C4(CC#N)CN(C(=O)C5CC5)C4)cc3)n2)cn1 [TDM-180880] ?
[out] 1 to 10 µM

[in] What would you report for CCCS(=O)(=O)N1CC(CC#N)(n2cc(-c3ccnc(Nc4cnn(C)c4)n3)cn2)C1 [TDM-180794] ?
[out] 0.1 to 1 µM

[in] What would you report for Cn1cc(Nc2nccc(-c3cnn(C4(CC#N)CN(C(=O)CC(F)(F)F)C4)c3)n2)cn1 [TDM-180752] ?
[out] 0.1 to 1 µM

[in] What would you report for COC(=O)CS(=O)(=O)N1CC(CC#N)(n2cc(-c3ccnc(Nc4cnn(C)c4)n3)cn2)C1 [TDM-180930] ?
[out] 0.1 to 1 µM

[in] What would you report for Cn1cc(Nc2nccc(-c3ccn(C4(CC#N)CN(C(=O)CC(F)(F)F)C4)n3)n2)cn1 [TDM-180860] ?
[out] 0.1 to 1 µM

[in] What would you report for CCS(=O)(=O)N1CCC(n2cc(-c3ccnc(Nc4cnn(C)c4)n3)cn2)CC1 [TDM-180674] ?
[out] ≥ 10 µM

[in] What would you report for Cn1cc(Nc2nccc(-c3ccn(C4(CC#N)CN(C(=O)[C@H]5CC5(F)F)C4)c3)n2)cn1 [TDM-180938] ?
[out] 0.1 to 1 µM

[in] What would you report for Cn1cc(Nc2nccc(-c3ccn(C4(CC#N)CN(S(=O)(=O)C5CC5)C4)c3)n2)cn1 [TDM-180770] ?
[out] 0.1 to 1 µM

[in] What would you report for CC(=O)N1CC(n2cc(-c3ccnc(Nc4cnn(C)c4)c3)cn2)C1 [TDM-180645] ?
[out] ≥ 10 µM

[in] What would you report for CCCC(=O)N1CC(n2cc(-c3ccnc(Nc4cnn(C)c4)c3)cn2)C1 [TDM-180640] ?
[out] ≥ 10 µM

[in] What would you report for CCCS(=O)(=O)N1CC(CC#N)(n2ccc(-c3ccnc(Nc4cnn(C)c4)n3)c2)C1 [TDM-180785] ?
[out] 0.1 to 1 µM
